Biological target: Gamma-secretase
Assay: Modulation of gamma-secretase in human H4 cells expressing APP Swedish mutant assessed as inhibition of amyloid beta (1 to 42 residues) production
Assay type: cell-based
Parameter: pEC50. Scope: all listed entries.
Friendly reminder that pEC50 comes from taking -log10 of the concentration in mol/L.

>  <Structure smiles>
CNc1nc(Cc2ccccc2)nc(Nc2ccc(-n3cnc(C)c3)c(OC)c2)n1

>  <Reported metric>
pEC50

>  <Observed>
7.54

$$$$

Continue with the molecule presented below.
Query: Return pEC50 for the following molecule: COc1cc(Nc2nc3n(n2)CCCC[C@H]3c2ccc(F)cc2)ccc1-n1cnc(C)c1
Response: 8.22

----------
Target: Gamma-secretase
Assay: Modulation of gamma-secretase in human H4 cells expressing human APP751 assessed as reduction in amyloid beta 42 production after 16 to 18 hrs by sandwich ELISA
Format: cell-based
Parameter: pEC50. Scope: all listed entries.
Friendly reminder that pEC50 comes from taking -log10 of the concentration in mol/L.

Completed entries (count: 8):
>  <Compound>
COc1cc(Nc2ncc3c(n2)N(c2cc(F)cc(F)c2)CCO3)ccc1-n1cnc(C)c1

>  <System tested>
Gamma-secretase

>  <pEC50>
7.85

$$$$
>  <Compound>
COc1cc(Nc2ncc3c(n2)N(C)C2(CC2)CO3)ccc1-n1cnc(C)c1

>  <System tested>
Gamma-secretase

>  <pEC50>
7.31

$$$$
>  <Compound>
COc1cc(N2CCC(Nc3ncc4c(n3)N(CC(F)(F)F)CCO4)CC2)ccn1

>  <System tested>
Gamma-secretase

>  <pEC50>
6.98

$$$$
>  <Compound>
COc1cc(Nc2ncc3c(n2)N(CC(F)(F)F)CCO3)ccc1-n1cnc(C)c1

>  <System tested>
Gamma-secretase

>  <pEC50>
7.00

$$$$
>  <Compound>
COc1cc(Nc2ncc3c(n2)N2CCCC2CO3)ccc1-n1cnc(C)c1 (centres undefined)

>  <System tested>
Gamma-secretase

>  <pEC50>
7.15

$$$$
>  <Compound>
COc1cc(N2CCC(Nc3ncc4c(n3)N(c3ccccc3)CCO4)CC2)ccn1

>  <System tested>
Gamma-secretase

>  <pEC50>
7.60

$$$$
>  <Compound>
COc1cc(Nc2ncc3c(n2)N(c2ccccc2)CCO3)ccc1-n1cnc(C)c1

>  <System tested>
Gamma-secretase

>  <pEC50>
7.41

$$$$
>  <Compound>
Cc1cc([C@@H]2CC[C@@H](Nc3ncc4c(n3)N(c3ccccc3Cl)CCO4)CO2)ccn1

>  <System tested>
Gamma-secretase

>  <pEC50>
7.39

$$$$

Continue with the compound presented below.
Query: Return pEC50 for the following compound: COc1cc(Nc2ncc3c(n2)N(C)[C@@H](c2ccccc2)CO3)ccc1-n1cnc(C)c1
Response: 7.80

----------
Target: Gamma-secretase
Experiment: Modulation of gamma-secretase in human SH-SY5Y cells expressing human APP751 assessed as reduction in amyloid beta 42 production after 18 to 22 hrs by sandwich ELISA
Type: cell-based
Reported metric: pEC50
Friendly reminder that pEC50 comes from taking -log10 of the concentration in mol/L.

Query: Return pEC50 for the following compound: CCN(CC)c1ccc(Nc2nc(-c3ccc(-n4ccnc4)cc3)cs2)c(C)c1
Response: 5.82

----------
Target: Gamma-secretase
Assay: Modulation of gamma-secretase in human SK-N-BE(2) cells expressing human APP695 assessed as reduction in amyloid beta 42 production incubated overnight by sandwich immunoassay
Format: cell-based
Reported metric: pEC50
Friendly reminder that pEC50 comes from taking -log10 of the concentration in mol/L.

Completed entries (count: 5):
>  <Compound>
CCn1cc(C(C)N2C(=O)c3ccc(-n4cnc(C)c4)c(=O)n3C[C@H]2C)c2cc(Cl)c(F)cc21 (stereo partly specified)

>  <pEC50>
8.00

$$$$
>  <Compound>
COc1cc2[nH]c(-c3cn4c(n3)C(c3ccccc3C(F)(F)F)OCC4)cc2cc1C#N (stereo unspecified)

>  <pEC50>
7.35

$$$$
>  <Compound>
COc1cc2[nH]c(-c3cn4c(n3)C(c3ccccc3Cl)OCC4)cc2cc1C#N (stereo unspecified)

>  <pEC50>
7.68

$$$$
>  <Compound>
COc1cc2[nH]c(-c3cn4c(n3)C(c3cccc(F)c3C)OCC4)cc2cc1C#N (stereo unspecified)

>  <pEC50>
7.70

$$$$
>  <Compound>
Cc1cn(-c2ccc3n(c2=O)C[C@@H](C)N(C(C)c2coc4cc(F)c(C(F)(F)F)cc24)C3=O)cn1 (stereo partly specified)

>  <pEC50>
8.22

$$$$

Continue with the compound presented below.
Query: Return pEC50 for the following compound: Cc1cn(-c2ccc3n(c2=O)CC2CCC(Cc4cc(C(F)(F)F)cc(C(F)(F)F)c4)N2C3=O)cn1 (stereo unspecified)
Response: 7.30

----------
Biological target: Gamma-secretase
Assay: Modulation of gamma-secretase in human H4 cells expressing human APP695 assessed as reduction in amyloid beta 42 production after 22 hrs by electrochemiluminescence assay
Assay type: cell-based
Reported metric: pEC50
Friendly reminder that pEC50 comes from taking -log10 of the concentration in mol/L.

Query: Under Gamma-secretase, report pEC50 for COc1cc(Nc2nc3c(c(N4CCCCC4)n2)SC2(CCC2)C3)ccc1-n1cnc(C)c1
Response: 7.05

Query: Under Gamma-secretase, report pEC50 for COc1cc(Nc2ncc3c(n2)N(C)C2(CCCC2)C(=O)N3CC(F)(F)F)ccc1-n1cnc(C)c1
Response: 7.66

Query: Under Gamma-secretase, report pEC50 for CCN1C(=O)C2CCCCCN2c2nc(Nc3ccc(-n4cnc(C)c4)c(OC)c3)ncc21 (stereo not drawn)
Response: 7.34
